Test: Intrinsic clearance in human liver microsomes at 1 uM measured up to 30 mins in presence of NADPH by LC/MS analysis
Type: ADME, Microsome
Conditions: read-out: CLH (converted)
measure: CLint scaled at 1 µM

Request: Answer with the recorded CLint scaled at 1 µM of `COc1cc(OC)c(F)c(N2Cc3cnc4[nH]ccc4c3N(C3CC3)C2=O)c1F` only.
Result: 15 mL/min/kg

###

Listed here: items and their measured bioavailability.
Assay: Oral bioavailability in cynomolgus monkey at 2 mg/kg administered as cassette dose measured after 24 hrs
Format: ADME, organism-based, Macaca fascicularis
Conditions: in vivo
Lab book: enter the figure in %, no units written.

>>> measurement("COc1cc(OC)c(F)c(N2Cc3cnc4[nH]ncc4c3N(C)C2=O)c1F")
21
>>> measurement("COc1cc(OC)c(F)c(N2Cc3cnc4[nH]ccc4c3N(CCO)C2=O)c1F")
2
>>> measurement("COc1cc(OC)c(F)c(N2Cc3cnc4[nH]cnc4c3N(C)C2=O)c1F")
6

Next:
Request: Write down bioavailability measured for item `CCN1C(=O)N(c2c(F)c(OC)cc(OC)c2F)Cc2cnc3[nH]c(CN4CCOCC4)cc3c21`
Result: 29

###

Biological target: Cytochrome P450 1A2 (Homo sapiens, UniProt P05177)
Sequence (P05177 whole entry): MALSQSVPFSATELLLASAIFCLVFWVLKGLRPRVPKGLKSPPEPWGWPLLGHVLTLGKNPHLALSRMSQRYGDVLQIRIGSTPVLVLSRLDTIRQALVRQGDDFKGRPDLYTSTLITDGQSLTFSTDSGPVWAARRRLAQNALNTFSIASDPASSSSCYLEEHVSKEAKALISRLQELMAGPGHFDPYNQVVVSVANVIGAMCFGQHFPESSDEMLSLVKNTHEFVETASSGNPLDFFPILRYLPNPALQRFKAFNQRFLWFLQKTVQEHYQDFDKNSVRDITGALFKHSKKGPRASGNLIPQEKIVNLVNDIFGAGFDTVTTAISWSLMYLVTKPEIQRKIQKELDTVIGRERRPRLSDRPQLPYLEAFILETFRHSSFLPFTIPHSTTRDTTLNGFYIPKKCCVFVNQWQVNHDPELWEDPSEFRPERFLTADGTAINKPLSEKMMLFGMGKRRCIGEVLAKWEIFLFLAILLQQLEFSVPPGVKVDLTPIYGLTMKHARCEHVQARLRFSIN
Test: Inhibition of CYP1A2 in human liver microsomes using 7-ethoxyresorufin as substrate substrate in presence of NADPH by LC-MS/MS analysis
Type: ADME
pIC50: −log10 of the molar value.
measure: pIC50

Request: Supply recorded pIC50 for `CCN1C(=O)N(c2c(F)c(OC)cc(OC)c2F)Cc2cnc3c(c21)CC(=O)N3` here.
Result: < 4.60

###

Assay: Clearance in cynomolgus monkey at 2 mg/kg, po or 1 mg/kg, iv administered as cassette dose measured after 24 hrs relative to hepatic blood flow
Assay type: ADME, organism-based, Macaca fascicularis
Conditions: in vivo
measure: CL (%)
Numbers only; they are read as %.

Example cases with answers are listed next.
>>> measurement("COc1cc(OC)c(F)c(N2Cc3cnc4[nH]cnc4c3N(C)C2=O)c1F")
29
>>> measurement("COc1cc(OC)c(F)c(N2Cc3cnc4[nH]ccc4c3N(C)C2=O)c1F")
19
>>> measurement("CCN1C(=O)N(c2c(F)c(OC)cc(OC)c2F)Cc2cnc3[nH]ncc3c21")
12
>>> measurement("COc1cc(OC)c(F)c(N2Cc3cnc4[nH]c(C(=O)N(C)C)cc4c3N(C)C2=O)c1F")
31
>>> measurement("COc1cc(OC)c(F)c(N2Cc3cnc4[nH]ccc4c3N(CCO)C2=O)c1F")
9

// switching to the query compound
Request: Identify measured CL corresponding to `COc1cc(OC)c(F)c(N2Cc3cnc4[nH]c(CN5CCOCC5)cc4c3N(C)C2=O)c1F`
Result: 8

###

Biological target: CYP2C8 (Homo sapiens)
Sequence (P10632 whole entry): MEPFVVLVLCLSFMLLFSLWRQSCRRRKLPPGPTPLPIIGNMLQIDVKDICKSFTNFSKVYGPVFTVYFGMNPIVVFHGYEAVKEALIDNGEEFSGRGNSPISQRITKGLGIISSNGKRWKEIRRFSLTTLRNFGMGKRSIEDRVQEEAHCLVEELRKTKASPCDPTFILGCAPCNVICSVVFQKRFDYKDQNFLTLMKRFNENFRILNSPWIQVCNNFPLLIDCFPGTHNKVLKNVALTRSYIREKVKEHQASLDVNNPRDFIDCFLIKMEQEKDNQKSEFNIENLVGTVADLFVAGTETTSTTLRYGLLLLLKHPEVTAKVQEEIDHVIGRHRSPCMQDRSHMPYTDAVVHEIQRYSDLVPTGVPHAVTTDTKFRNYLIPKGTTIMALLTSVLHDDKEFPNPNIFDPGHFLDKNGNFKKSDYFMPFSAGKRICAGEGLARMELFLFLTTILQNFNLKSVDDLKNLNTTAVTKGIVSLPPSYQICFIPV
Test: Inhibition of CYP2C8 in human liver microsomes using amodiaquine as substrate substrate in presence of NADPH by LC-MS/MS analysis
Format: ADME
Details: probe amodiaquine
pIC50: −log10 of the molar value.
measure: pIC50

Request: Kindly indicate its recorded pIC50. Item: `CCN1C(=O)N(c2c(F)c(OC)cc(OC)c2F)Cc2cnc3[nH]c(CN4CCOCC4)cc3c21`
Result: < 4.60

###

Test: Half life in cynomolgus monkey at 2 mg/kg, po or 1 mg/kg, iv administered as cassette dose measured after 24 hrs
Type: ADME, organism-based, Macaca fascicularis
Conditions: in vivo
measure: half-life (h)
Answer format: numeric, h implied, no suffix.

Illustrative cases are given below, each with its answer.
>>> measurement("COc1cc(OC)c(F)c(N2Cc3cnc4[nH]c(C(=O)N(C)C)cc4c3N(C)C2=O)c1F")
0.6
>>> measurement("CCN1C(=O)N(c2c(F)c(OC)cc(OC)c2F)Cc2cnc3[nH]ncc3c21")
1.6
>>> measurement("COc1cc(OC)c(F)c(N2Cc3cnc4[nH]ccc4c3N(CCO)C2=O)c1F")
1.1
>>> measurement("COc1cc(OC)c(F)c(N2Cc3cnc4[nH]cnc4c3N(C)C2=O)c1F")
0.9
>>> measurement("COc1cc(OC)c(F)c(N2Cc3cnc4[nH]c(CN5CCOCC5)cc4c3N(C)C2=O)c1F")
7.9

Lab note: next compound to report on.
Request: Give a short answer stating reported half-life for `COc1cc(OC)c(F)c(N2Cc3cnc4[nH]ccc4c3N(C)C2=O)c1F` .
Result: 1.1

###

Biological target: CYP3A4 (Homo sapiens)
Sequence (P08684 whole entry): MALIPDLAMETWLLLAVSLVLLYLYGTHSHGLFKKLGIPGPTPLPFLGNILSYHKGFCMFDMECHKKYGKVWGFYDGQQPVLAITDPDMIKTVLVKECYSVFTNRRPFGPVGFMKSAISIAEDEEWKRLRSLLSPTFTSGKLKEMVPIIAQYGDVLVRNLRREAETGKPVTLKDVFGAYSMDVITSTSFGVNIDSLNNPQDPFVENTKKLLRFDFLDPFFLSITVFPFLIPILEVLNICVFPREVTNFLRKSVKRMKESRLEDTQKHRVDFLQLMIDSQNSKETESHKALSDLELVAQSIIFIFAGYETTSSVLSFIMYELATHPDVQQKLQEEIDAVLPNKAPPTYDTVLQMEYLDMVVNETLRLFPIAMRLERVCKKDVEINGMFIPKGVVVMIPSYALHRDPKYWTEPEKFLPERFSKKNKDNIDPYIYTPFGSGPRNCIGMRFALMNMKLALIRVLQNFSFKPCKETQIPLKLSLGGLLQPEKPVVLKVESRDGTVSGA
Experiment: Time dependent inhibition of CYP3A4 enzyme activity in human liver microsomes at 20 uM using midazolam as substrate substrate preincubated for 30 mins in presence of NADPH relative to control
Type: ADME
Conditions: probe midazolam, read-out: TDI
measure: inhibition at 30 mins, 20 µM

Request: Provide measured inhibition at 30 mins, 20 µM value, entry: `COc1cc(OC)c(F)c(N2Cc3cnc4c(c3N(c3cccc(F)c3F)C2=O)CC(=O)N4)c1F`
Result: 30%

###

Target: CYP2C19 (Homo sapiens, UniProt P33261)
Sequence (P33261 whole entry): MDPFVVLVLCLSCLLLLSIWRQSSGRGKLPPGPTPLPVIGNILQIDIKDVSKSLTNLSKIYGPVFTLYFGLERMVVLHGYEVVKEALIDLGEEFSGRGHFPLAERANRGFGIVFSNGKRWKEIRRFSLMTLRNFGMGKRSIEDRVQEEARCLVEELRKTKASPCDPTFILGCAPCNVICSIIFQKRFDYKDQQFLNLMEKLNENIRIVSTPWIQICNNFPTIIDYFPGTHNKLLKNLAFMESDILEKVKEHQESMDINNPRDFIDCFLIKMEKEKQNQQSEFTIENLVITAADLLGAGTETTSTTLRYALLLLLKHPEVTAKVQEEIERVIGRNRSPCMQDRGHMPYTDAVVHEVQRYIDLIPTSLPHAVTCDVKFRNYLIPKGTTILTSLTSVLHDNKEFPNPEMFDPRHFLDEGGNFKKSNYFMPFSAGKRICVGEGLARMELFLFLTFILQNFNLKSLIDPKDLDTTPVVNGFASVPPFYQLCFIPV
Assay: Inhibition of CYP2C19 in human liver microsomes using s-mephenytoin as substrate substrate in presence of NADPH by LC-MS/MS analysis
Type: ADME
Conditions: human, liver microsomes, probe s-mephenytoin
measure: IC50

Request: Give IC50 for the following compound: `CCN1C(=O)N(c2c(F)c(OC)cc(OC)c2F)Cc2cnc3[nH]c(CN4CCOCC4)cc3c21`
Result: > 25 µM

###

Assay: Half life in Sprague-Dawley rat at 2 mg/kg, po or 1 mg/kg, iv administered as cassette dose measured after 24 hrs
Type: ADME, organism-based
Details: in vivo
Measured half-life determines class: bin 0: < 0.8 h; bin 1: ≥ 0.8 h and < 2 h; bin 2: ≥ 2 h

Study these solved cases before continuing.
>>> class_name("CCN1CCN(CCCc2cc3c4c(cnc3[nH]2)CN(c2c(F)c(OC)cc(OC)c2F)C(=O)N4C)CC1")
"bin 0"
>>> class_name("COc1cc(OC)c(F)c(N2Cc3cnc4[nH]ccc4c3N(C)C2=O)c1F")
"bin 2"
>>> class_name("COc1cc(OC)c(F)c(N2Cc3cnc4[nH]c(C(=O)N(C)C)cc4c3N(C)C2=O)c1F")
"bin 1"
>>> class_name("COc1cc(OC)c(F)c(N2Cc3cnc4[nH]cnc4c3N(C)C2=O)c1F")
"bin 1"
>>> class_name("COc1cc(OC)c(F)c(N2Cc3cnc4[nH]ccc4c3N([C@@H]3CCC[C@H]3O)C2=O)c1F")
"bin 0"

Request: # bin label for `CCN1CCN(Cc2cc3c4c(cnc3[nH]2)CN(c2c(F)c(OC)cc(OC)c2F)C(=O)N4C)CC1`
Result: bin 2

Request: Which half-life band matches `COc1cc(OC)c(F)c(N2Cc3cnc4[nH]c(C(=O)N5CCN(C)CC5)cc4c3N(C)C2=O)c1F` ?
Result: bin 1

Request: Category of `COc1cc(OC)c(F)c(N2Cc3cnc4c(c3N(C)C2=O)CC(=O)N4)c1F` :
Result: bin 1

###

Test: Volume of distribution at steady state in cynomolgus monkey at 2 mg/kg, po or 0.5 mg/kg, iv administered as cassette dose measured after 24 hrs
Type: ADME, organism-based, Macaca fascicularis
Conditions: in vivo, read-out: Vdss
measure: Vd (L/kg)
API: value field is a number in L/kg; no unit string.

Solved cases below.
>>> measurement("CCN1C(=O)N(c2c(F)c(OC)cc(OC)c2F)Cc2cnc3c(c21)CC(=O)N3")
0.46
>>> measurement("COc1cc(OC)c(F)c(N2Cc3cnc4c(c3N(C)C2=O)CC(=O)N4)c1F")
0.68
>>> measurement("COc1cc(OC)c(F)c(N2Cc3cnc4[nH]c(C(=O)N5CCN(C)CC5)cc4c3N(C)C2=O)c1F")
0.31
>>> measurement("COc1cc(OC)c(F)c(N2Cc3cnc4[nH]ccc4c3N(C3CC3)C2=O)c1F")
0.45
>>> measurement("CCN1CCN(Cc2cc3c4c(cnc3[nH]2)CN(c2c(F)c(OC)cc(OC)c2F)C(=O)N4C)CC1")
0.41
>>> measurement("COc1cc(OC)c(F)c(N2Cc3cnc4[nH]ncc4c3N(C)C2=O)c1F")
0.4

Let us move to another entry and its Vd.
Request: Provide measured Vd value, entry: `CCN1C(=O)N(c2c(F)c(OC)cc(OC)c2F)Cc2cnc3[nH]c(CN4CCOCC4)cc3c21`
Result: 0.58

###

Test: Oral bioavailability in Beagle dog at 2 mg/kg measured after 24 hrs
Assay type: ADME, organism-based, Canis lupus familiaris
Details: in vivo
measure: bioavailability (%)
Provide the reading as a plain figure in %.

Request: Input CCN1C(=O)N(c2c(F)c(OC)cc(OC)c2F)Cc2cnc3[nH]c(CN4CCOCC4)cc3c21 [PEMIGATINIB] , output reported bioavailability.
Result: 98

###

Test: Oral bioavailability in cynomolgus monkey at 5 mg/kg measured after 24 hrs
Format: ADME, organism-based, Macaca fascicularis
Conditions: in vivo
measure: bioavailability (%)
Provide the reading as a plain figure in %.

Request: Quote bioavailability reported for `CCN1C(=O)N(c2c(F)c(OC)cc(OC)c2F)Cc2cnc3c(c21)CC(=O)N3` please.
Result: 17

Ref: ChEMBL document CHEMBL4808209
